The measured values listed here are drawn from paper PMC7383930.

# subject_of_test: purified extracellular domain of PSMA (prostate-specific membrane antigen), residues 44–750 (human, UniProt Q04609)
# Sequence (Q04609 44-750): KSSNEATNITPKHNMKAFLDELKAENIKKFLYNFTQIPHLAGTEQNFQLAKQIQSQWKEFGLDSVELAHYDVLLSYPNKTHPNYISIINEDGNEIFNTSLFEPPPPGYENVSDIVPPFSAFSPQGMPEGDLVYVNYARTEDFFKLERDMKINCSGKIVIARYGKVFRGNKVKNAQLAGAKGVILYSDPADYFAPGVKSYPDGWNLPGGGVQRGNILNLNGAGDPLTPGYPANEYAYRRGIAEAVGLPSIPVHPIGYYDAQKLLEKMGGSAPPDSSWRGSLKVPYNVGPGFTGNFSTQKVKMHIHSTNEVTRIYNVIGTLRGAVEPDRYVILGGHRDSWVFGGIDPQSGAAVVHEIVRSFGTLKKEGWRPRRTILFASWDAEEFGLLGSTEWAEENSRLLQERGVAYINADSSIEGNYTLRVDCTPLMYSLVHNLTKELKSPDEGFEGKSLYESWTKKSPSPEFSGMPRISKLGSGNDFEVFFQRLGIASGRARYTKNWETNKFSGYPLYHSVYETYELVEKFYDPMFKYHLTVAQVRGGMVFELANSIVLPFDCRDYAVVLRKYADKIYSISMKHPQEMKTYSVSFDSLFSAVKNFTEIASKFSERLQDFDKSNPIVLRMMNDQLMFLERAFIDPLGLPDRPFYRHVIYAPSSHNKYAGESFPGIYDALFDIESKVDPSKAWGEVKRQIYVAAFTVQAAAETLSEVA
# experiment_notes: SPR; ProteOn XPR36 chip; each NB (0.2 μg) immobilised by amine coupling (sulfo-NHS/EDC, 10 mM sodium acetate pH 5.0); soluble PSMA flowed at 25 μL/min (25-3200 pM for NB7; 2.94-47.00 nM for NB8, NB13, NB37); dissociation in PBST (0.005% Tween); BSA surface subtracted; Langmuir 1:1 kinetic model; 25 °C
# condition_description: both partners purified

binder	koff
NB7 (VHH) VHH: QVQLQESGGGSVQAGGSLRLSCTAPGYTDSNYYMSWFRQAPGKEREWVAGVNTGRGSTSYADSVKGRFTISQDNAKNTMFLQMNSLKPEDTAIYYCAVAACHFCDSLPKTQDEYILWGQGTQVTVSS	3.9e-05 s⁻¹
NB37 (VHH) VHH: QVQLQESGGGSVEAGGSLRLSCARSGWPYSTYSMNWFRQAPGKEREAVAGISSTMSGIIFAESKAGQFTISQDNAKNTVYLQMNNLKPEDTAIYYCAARRDYSLSSSSDDFDYWGQGTQVTVSS	7.5e-05 s⁻¹
NB8 (VHH) VHH: QVQLQESGGGSVQAGGSLRLSCARSGWPYSTYSMNWFRQAPGKEREAVAGISSTMSGIIFAESKAGQFTISQDNAKNTVYLQMNNLKPEDTAIYYCAARRDYSLSSSSDDFDYWGQGTQVTVSS	0.00012 s⁻¹
NB13 (VHH) VHH: QVQLQESGGGSVQTGGSLRLSCAASGYTASFSWIGYFRQAPGKEREGVAVINVGVGSTYYADSVKGRFTISRDNTENTISLEMNSLKPEDTGLYYCAGSLRWSRPPNPISEDAYNYWGQGTQVTVSS	2.2e-05 s⁻¹
